tested on: Vero monkey kidney cells; test: In vitro toxicity, MTS assay in Vero cells; assay type: cell-based; conditions: cytotoxicity, list of preferred compounds (FIG. 20); read-out: IC50
pIC50 values for the compounds below.
# pIC50 is unitless: minus log10 of the molar concentration; print number only

>>> print(df.to_string())
                                   compound              assay_target  result_type  observed_value
0  c1ccc(CN2CCN(C3CCC4CCCCC4C3)CC2)cc1 (centres unmarked) [#787, N-Benzyl-N′-2-Decalonepiperazine]  Vero monkey kidney cells        pIC50            4.15

Could you now look at the following compound, please?
Please provide the recorded pIC50 for Fc1ccccc1N1CCN(C2CCC3CCCCC3C2)CC1 (centres unmarked) , tested on Vero monkey kidney cells.
4.15

* * *

system: H37Rv strain of Mtb; experiment: microbe, parasite or virus in culture; format: cell-based, M. tuberculosis; conditions: Mycobacterium tuberculosis, H37RV; read-out: MIC
MIC values for the compounds below.

                                   compound  observed_value
0  c1ccc(COc2ccc(CN3CCN(Cc4ccccc4)CC3)cc2)cc1 [SQ786]         3.13 µM
1  CC1(C)C2CC=C(CN3CCCN(CC4=CCC5CC4C5(C)C)CC3)C1C2 [SQ779]          7.8 µM
2  COc1ccccc1CN1CCCN(Cc2ccccc2OC)CC1 [SQ782]          7.8 µM

Could you now look at the following compound, please?
Query: MIC; subject: CCOc1ccccc1CN1CCCN(Cc2ccccc2OCC)CC1 [SQ780, N,N′-Bis(2-Ethoxybenzyl)homopiperazine]
3.9 µM

* * *

MIC values for the molecules below.
test system: H37Rv strain of Mtb; experiment: microbe, parasite or virus in culture; format: cell-based, M. tuberculosis; conditions: Mycobacterium tuberculosis, H37RV, Examples 4 and 5 and screening summary; read-out: MIC
Reply with a number, then the unit it belongs to.

                                   molecule  result_type  observed_value
0  CCOc1ccccc1CN1CCCN(Cc2ccccc2OCC)CC1 [SQ780, N,N′-Bis(2-Ethoxybenzyl)homopiperazine]          MIC         1.56 µM
1  c1ccc(COc2ccc(CN3CCN(Cc4ccccc4)CC3)cc2)cc1 [SQ786]          MIC          3.9 µM
2  CC[C@@H](CO)NCCN[C@@H](CC)CO [EMB, Ethambutol, reference compound]          MIC         12.5 µM
3  C1CN(C2C3CC4CC(C3)CC2C4)CCN(C2C3CC4CC(C3)CC2C4)C1 (stereo not drawn) [SQ775, N,N′-Bis(2-Adamantane)homopiperazine]          MIC         6.25 µM
4  COc1ccccc1CN1CCCN(Cc2ccccc2OC)CC1 [SQ782]          MIC         6.25 µM

Could you now look at the following molecule, please?
Query: MIC; subject: NNC(=O)c1ccncc1 [INH, Isoniazid, reference compound]
1 µM

* * *

tested on: H37Rv strain of Mtb; assay: microbe, parasite or virus in culture; format: cell-based, M. tuberculosis; settings: Mycobacterium tuberculosis, H37RV; read-out: MIC
MIC values for the compounds below.
Just the number in µM, nothing appended.

Please review the entries below; each comes with its answer.
In [3]: df
Out[3]:
                                   compound  observed_value
0         C1CCCC(N2CCCN(C3CCCCCCC3)CC2)CCC1             7.8
1  C1CCC2CC(N3CCCN(C4CCC5CCCCC5C4)CC3)CCC2C1 (stereo not drawn)             7.8

Could you now look at the following compound, please?
Query: MIC; subject: C1CN(C2C3CC4CC(C3)CC2C4)CCN(C2C3CC4CC(C3)CC2C4)C1 (stereo not drawn)
7.8
